Hello, the source for this data is the supplement of paper PMC8728848, in case you need it.

For each of the binders below, state its glycan array binding signal (z-score).
# targetOfAssay: Gal(b1-3)GalNAc(b1-4)[Neu5Ac(a2-3)]Gal(b1-4)Glc
# protocol: glycan array binding signal (z-score within array); higher = stronger binding
# testSettings: glycan notation: IUPAC condensed, linker removed
About 410 targets per protein were measured; listed, in parts, are those with the strongest signals and a random draw of the rest.
Numbers only.

[
  {
    "binder": "pTFF2 (Sus scrofa), P01359 (protein) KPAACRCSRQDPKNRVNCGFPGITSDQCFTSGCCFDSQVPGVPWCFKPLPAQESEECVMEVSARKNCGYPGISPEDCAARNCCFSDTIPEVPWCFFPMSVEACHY",
    "observed": 2.82
  }
]

I need glycan array binding signal (z-score) for every entry listed below, if you could help.
1. MFG-E8 (Homo sapiens), Q08431 (protein) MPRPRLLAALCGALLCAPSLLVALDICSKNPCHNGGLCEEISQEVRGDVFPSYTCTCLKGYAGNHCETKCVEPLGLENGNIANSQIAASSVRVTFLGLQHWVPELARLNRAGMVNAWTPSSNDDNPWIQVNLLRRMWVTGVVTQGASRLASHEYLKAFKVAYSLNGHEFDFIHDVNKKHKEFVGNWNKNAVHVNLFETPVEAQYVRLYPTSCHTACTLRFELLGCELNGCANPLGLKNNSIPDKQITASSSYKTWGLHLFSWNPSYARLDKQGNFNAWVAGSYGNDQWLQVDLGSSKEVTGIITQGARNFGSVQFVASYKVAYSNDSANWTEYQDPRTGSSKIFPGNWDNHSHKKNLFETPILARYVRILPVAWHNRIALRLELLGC
2. R410P1E11 (Tachypleus tridentatus), TAL2_TACTR (protein) MEKGTPPTHDSDNWMGRAKEIGNGGWDQFQFLFFDPNGYLYAVSNDKLYKASPPQSDTDNWIARATEIGSGGWSGFKFLFFHPNGYLYAVRGQRFYKALPPVSNQD
3. DC SIGN CRD (Homo sapiens), Q9NNX6 (protein) QPCPWEWTFFQGNCYFMSNSQRNWHDSITACKEVGAQLVVIKSAEEQNFLQLQSSRSNRFTWMGLSDLNQEGTWQWVDGSPLLPSFKQYWNRGEPNNVGEEDCAEFSGNGWNDDKCNLAKFWICKKSAWSHPQFEK

1. -0.7
2. -0.397
3. -0.363
